Study system: PKA-RIIα-GFP (UniProt P13861)
Sequence (P13861 2-404): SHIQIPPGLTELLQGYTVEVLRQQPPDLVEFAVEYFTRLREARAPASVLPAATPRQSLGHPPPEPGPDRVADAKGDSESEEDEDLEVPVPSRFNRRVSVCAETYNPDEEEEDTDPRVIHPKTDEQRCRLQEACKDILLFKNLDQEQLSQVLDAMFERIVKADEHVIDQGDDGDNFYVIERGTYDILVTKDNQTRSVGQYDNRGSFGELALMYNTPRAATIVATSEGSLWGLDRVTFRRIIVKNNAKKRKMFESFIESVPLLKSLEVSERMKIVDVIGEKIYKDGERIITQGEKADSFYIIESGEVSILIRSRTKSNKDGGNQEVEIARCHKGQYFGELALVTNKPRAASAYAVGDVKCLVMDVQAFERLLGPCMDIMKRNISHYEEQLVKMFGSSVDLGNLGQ
Metric name: binding result

AKMIVSDIMQQ [truncation SEQ 81]    no binding
IAKMIVSDIMQQ [truncation SEQ 80]    no binding
KIAKMIVSDIMQQ [truncation SEQ 79]    no binding
WKIAKMIVSDIMQQ [truncation SEQ 78]    no binding

Give me measured binding result, please, for this binder: KMIVSDIMQQ [truncation SEQ 82]
no binding
